Quick reference: AUC of the listed items.
test system: Rattus norvegicus; experiment: Area under the curve administered intravenously in rats.; assay type: ADME, organism-based; conditions: in vivo, iv
Bridge positions count the residues as written; N and C are the ends. Square brackets hold non-standard residues; d marks the D form. Peptide text beside a SMILES is read from it. * marks the point of attachment. X2 = CC(=O)OC[C@@H]1O[C@@H](*)[C@@H](OC(C)=O)[C@@H](OC(C)=O)[C@H]1OC(C)=O; X1 = OC[C@@H]1O[C@@H](*)[C@@H](O)[C@@H](O)[C@H]1O; Mpa = O=C(O)CCS
Provide only the numeric value, understood in ng·h/mL.

// worked examples, AUC included
| COMPOUND | MEASURED_ON | UNIT_ANNOTATION | AUC |
| --- | --- | --- | --- |
| NC(=O)CC[C@@H]1NC(=O)[C@H](Cc2ccccc2)NC(=O)[C@H](Cc2ccc(O)cc2)NC(=O)CCSSC[C@@H](C(=O)N2CCC[C@H]2C(=O)N[C@H](CCCN=C(N)N)C(=O)NCC(N)=O)NC(=O)[C@H](CC(N)=O)NC1=O [DESMOPRESSIN] | Rattus norvegicus | ng·h/mL | 7.65 |
| CC(=O)OC[C@@H]1O[C@@H](OC[C@@H]2NC(=O)[C@H](Cc3ccccc3)NC(=O)[C@H](Cc3ccc(O)cc3)NC(=O)CCSSC[C@@H](C(=O)N3CCC[C@H]3C(=O)N[C@@H](CCCN=C(N)N)C(=O)NCC(N)=O)NC(=O)[C@H](CC(N)=O)NC2=O)[C@@H](OC(C)=O)[C@@H](OC(C)=O)[C@H]1OC(C)=O ([Mpa]YFS(X2)NCPRG-NH2; disulfide 1-6) | Rattus norvegicus | ng·h/mL | 4.97 |
| NC(=O)CNC(=O)[C@@H](CCCN=C(N)N)NC(=O)[C@@H]1CCCN1C(=O)[C@@H]1CSSCCC(=O)N[C@H](Cc2ccc(O)cc2)C(=O)N[C@@H](Cc2ccccc2)C(=O)N[C@@H](CO)C(=O)N[C@@H](CC(N)=O)C(=O)N1 | Rattus norvegicus | ng·h/mL | 4.63 |

q: What value of AUC has been reported for the following compound? NC(=O)CNC(=O)[C@H](CCCN=C(N)N)NC(=O)[C@@H]1CCCN1C(=O)[C@@H]1CSSCCC(=O)N[C@@H](Cc2ccc(O)cc2)C(=O)N[C@@H](Cc2ccccc2)C(=O)N[C@@H](CO[C@@H]2O[C@@H](CO)[C@H](O)[C@H](O)[C@@H]2O)C(=O)N[C@@H](CC(N)=O)C(=O)N1 ([Mpa]YFS(X1)NCPRG-NH2; disulfide 1-6)
a: 3.52
